- TARGET SYSTEM: GK (glucokinase, residues 12-465) (Homo sapiens)
- Construct: I.D. No. 1 corresponds to residues 12-465 of glucokinase
- TEST SUMMARY: enzymatic glucokinase activity assay (ATP consumption, KinaseGlo luminescence)
- MEASUREMENT CONTEXT: Kact = concentration that displays 50% of the maximal increase in GK activity; 5 μM ATP, 5 mM Glucose, 60 min, room temperature; reported as bins; read-out: pKact
pEC50: −log10 of the molar value.
VALUE TYPE: pEC50

These recorded examples may help you get a feel for the data.
Cn1ccc(NC(=O)C(CC2CCOCC2)n2cc3c(S(=O)(=O)C4CC4)c(F)ccc3n2)n1 (stereo not drawn): ≤ 4.80
O=C(Nc1ncc(F)s1)[C@@H](CC1CCOCC1)n1ncc2c(S(=O)(=O)C3CC3)cccc21: 4.90 to 5.40
O=C1CC[C@H](C[C@@H](C(=O)Nc2ncc(F)s2)n2cc(S(=O)(=O)C3CC3)cn2)C1: 4.90 to 5.40
O=C(Nc1ncc(Cl)s1)C(CC1CCOCC1)n1cc(S(=O)(=O)C2CCCC2)cn1 (stereo not drawn): 5.90 to 6.40
O=C(Nc1ncc(F)s1)C(CC1CCCC1)n1cc(S(=O)(=O)C2CC2)cn1 (stereo not drawn): 5.50 to 5.80
COc1ccc2c(cnn2C(CC2CCOCC2)C(=O)Nc2ccn(C)n2)c1S(=O)(=O)C1CC1 (racemic): 5.90 to 6.40
O=C(Nc1ncc(F)s1)C(CC1CCOCC1)n1ncc2c(S(=O)(=O)C3CC3)c(Cl)ccc21 (stereo not drawn): ≥ 6.50
O=C(Nc1ncc(F)s1)C(CC1CCCC1)n1ncc2c(S(=O)(=O)C3CC3)cccc21 (stereo not drawn): 5.90 to 6.40
O=C(Nc1ncc(F)s1)[C@@H](CC1CCOCC1)n1ncc2c(S(=O)(=O)C3CC3)ccnc21: ≤ 4.80
N#Cc1cnc(NC(=O)C(CC2CCOCC2)n2ncc3c(S(=O)(=O)C4CC4)cccc32)nc1 (stereo not drawn): ≤ 4.80

Data point: O=C(Nc1ncc(F)cc1F)C(CC1CCOCC1)n1ncc2c(S(=O)(=O)C3CC3)cccc21 (stereo not drawn) ; pEC50 = ≤ 4.80

Data point: O=C(Nc1ncc(F)s1)C(CC1CCOCC1)n1ncc2c(S(=O)(=O)C3CC3)cc(Cl)cc21 (stereo not drawn) ; pEC50 = ≥ 6.50

---

We begin with a simple list: items and their reported Emax.
- TARGET SYSTEM: GK (glucokinase, residues 12-465) (Homo sapiens, UniProt P35557)
- Construct: I.D. No. 1 corresponds to residues 12-465 of glucokinase; made in house; host or cells: DH10b-T1r E. coli
- Sequence (P35557 with tags, fused parts or gaps isoform P35557-2): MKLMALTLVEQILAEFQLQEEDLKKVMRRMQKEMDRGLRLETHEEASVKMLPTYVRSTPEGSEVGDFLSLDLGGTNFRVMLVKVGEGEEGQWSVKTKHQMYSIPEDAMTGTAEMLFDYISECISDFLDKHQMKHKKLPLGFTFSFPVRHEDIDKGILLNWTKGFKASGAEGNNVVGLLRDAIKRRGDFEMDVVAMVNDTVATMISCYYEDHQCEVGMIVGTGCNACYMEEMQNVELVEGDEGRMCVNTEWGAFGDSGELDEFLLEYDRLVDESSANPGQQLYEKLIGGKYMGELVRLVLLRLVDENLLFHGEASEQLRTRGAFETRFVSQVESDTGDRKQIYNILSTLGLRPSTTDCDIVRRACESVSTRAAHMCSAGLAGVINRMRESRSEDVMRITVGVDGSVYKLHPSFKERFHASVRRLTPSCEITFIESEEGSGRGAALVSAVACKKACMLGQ
- TEST SUMMARY: enzymatic glucokinase activity assay (ATP consumption, KinaseGlo luminescence)
- Assay type: biochemical
- MEASUREMENT CONTEXT: calculated maximal gain in GK enzyme activity at a saturating concentration of the compound; 5 μM ATP, 5 mM Glucose; reported as bins; read-out: % ACTmax

NC(=O)c1ccc(NC(=O)C(CC2CCOCC2)n2ncc3c(S(=O)(=O)C4CC4)cc(F)cc32)nc1 (stereo not shown): 106 to 110%
Cn1ccc(NC(=O)C(CC2CCOCC2)n2ncc3c(S(=O)(=O)C4CC4)cc(OC(F)F)cc32)n1 (stereo not shown): ≤ 90%
O=C1CC[C@H](C[C@H](C(=O)Nc2ncc(F)s2)n2ncc3c(S(=O)(=O)C4CC4)cc(Cl)cc32)C1: 90 to 100%
O=C1CC[C@H](C[C@H](C(=O)Nc2cnccn2)n2ncc3c(S(=O)(=O)C4CC4)cccc32)C1: 90 to 100%
Cn1ccc(NC(=O)C(CC2CCOCC2)n2ncc3c(S(=O)(=O)C4CC4)cc(N)nc32)n1 (stereo not shown): ≤ 90%

Entry Cc1ccc2c(cnn2C(CC2CCOCC2)C(=O)Nc2ccn(C)n2)c1S(=O)(=O)C1CC1 (stereo not shown) , tested on GK (glucokinase, residues 12-465) (Homo sapiens, UniProt P35557), has a reported Emax of ≥ 111%

Entry N#Cc1cnc(NC(=O)C(CC2CCOCC2)n2ncc3c(S(=O)(=O)C4CC4)cccc32)nc1 (stereo not shown) , tested on GK (glucokinase, residues 12-465) (Homo sapiens, UniProt P35557), has a reported Emax of ≤ 90%
